TGT: human glucagon receptor (human) (UniProt P47871)
Sequence (P47871 26-477): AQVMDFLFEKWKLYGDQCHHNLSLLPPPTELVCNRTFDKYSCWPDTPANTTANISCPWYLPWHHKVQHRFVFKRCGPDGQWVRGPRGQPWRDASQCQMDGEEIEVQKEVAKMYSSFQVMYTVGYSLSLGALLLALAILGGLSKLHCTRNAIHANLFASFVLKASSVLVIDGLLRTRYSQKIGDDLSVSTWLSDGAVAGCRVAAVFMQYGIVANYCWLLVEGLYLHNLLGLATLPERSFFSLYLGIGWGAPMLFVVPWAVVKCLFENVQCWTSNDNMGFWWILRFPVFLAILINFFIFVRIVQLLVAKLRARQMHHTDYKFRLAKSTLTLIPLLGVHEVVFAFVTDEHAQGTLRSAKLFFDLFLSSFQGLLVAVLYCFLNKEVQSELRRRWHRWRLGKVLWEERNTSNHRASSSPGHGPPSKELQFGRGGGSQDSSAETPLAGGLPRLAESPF
PROCEDURE_TEXT: cell-based or functional assay
QUANTITY_KIND: log10(cAMP Rel EC50 (in the presence of 1% HSA)) (log10 of the value in nM)

BINDER: YXQGTFTSDFSXXLDKKAQXAFIEYLLEXGXSSGAPPPSGE (Aib, Orn, αMeL, 4Pal; lysine acylated C18 diacid; C-terminal amide; synthetic construct; SITE 2: note = 2-Aminoisobutyric Acid; SITE 12: note = L-ornithine; SITE 13: note = alpha-methyl-leucine; SITE 17: note = Lysine is chemically modified through conjugation of the epsilon-amino group of the Lysine side chain with (2-[2-(2-Amino-ethoxy)-ethoxy]-acetyl)-(gamma-Glu)) [Example 248]
RECORDED_MEASUREMENT: 2.38
--
BINDER: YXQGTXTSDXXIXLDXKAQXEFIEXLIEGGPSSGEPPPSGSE (non-natural residues, acylated Lys ((γGlu)2-C18 diacid), C-terminal amide; synthetic construct; SITE 2: note = 2-Aminoisobutyric Acid; SITE 6: note = alpha-methyl-L-phenylalanine; SITE 10: note = 3-(4-Pyridyl)-L-alanine; SITE 11: note = alpha-methyl-L-serine; SITE 13: note = alpha-methyl-leucine; SITE 16: note = L-ornithine; SITE 17: note = Lysine is chemically modified th) [Example 1173]
RECORDED_MEASUREMENT: 2.40
--
BINDER: YXQGTXTSDXSILLDKKAQXAFIEYLEEGGPSSGEPPPSGTEE (acylated Lys, C-terminal amide, non-natural residues; synthetic construct; SITE 2: note = 2-Aminoisobutyric Acid; SITE 6: note = alpha-methyl-2-fluoro-L-phenylalanine; SITE 10: note = 3-(4-Pyridyl)-L-alanine; SITE 17: note = Lysine is chemically modified through conjugation of the epsilon-amino group of the Lysine side chain with (gamma-Glu)2-CO-(CH2)1) [Example 608]
RECORDED_MEASUREMENT: 2.83
--
BINDER: YXQGTFTSDFSKXLDKKAQXQFIEYLLAGGPSSGEPPPSEG (synthetic construct; SITE 2: note = 2-Aminoisobutyric Acid; SITE 13: note = alpha-methyl-leucine; SITE 17: note = Lysine is chemically modified through conjugation of the epsilon-amino group of the Lysine side chain with (2-[2-(2-Amino-ethoxy)-ethoxy]-acetyl)-(gamma-Glu)-CO-(CH2) 16-CO2H; SITE 20: n) [Example 26]
RECORDED_MEASUREMENT: 2.99
--
BINDER: YXQGTXTSDXSILLDKKAQXAFIEYLEEGGPSSGAPPPSGSEE (acylated Lys (γGlu)2-C18 diacid; non-natural residues; C-terminal amide; synthetic construct; SITE 2: note = 2-Aminoisobutyric Acid; SITE 6: note = alpha-methyl-2-fluoro-L-phenylalanine; SITE 10: note = 3-(4-Pyridyl)-L-alanine; SITE 17: note = Lysine is chemically modified through conjugation of the epsilon-amino group of the Lysine side chain with (gamma-Glu)2-CO-(CH2)1) [Example 610]
RECORDED_MEASUREMENT: 2.73
--
BINDER: YXQGTXTSDXXILLDXKAQXXFIEYLIEGGPSSGEPPPEGGEE (non-natural residues, acylated Lys ((γGlu)2-C18 diacid), C-terminal amide; synthetic construct; SITE 2: note = 2-Aminoisobutyric Acid; SITE 6: note = alpha-methyl-2-fluoro-L-phenylalanine; SITE 10: note = 3-(4-Pyridyl)-L-alanine; SITE 11: note = alpha-methyl-L-serine; SITE 16: note = L-ornithine; SITE 17: note = Lysine is chemically modified through conjugation of the epsi) [Example 605]
RECORDED_MEASUREMENT: 2.55
--
BINDER: YXQGTXTSDXXIXLDXKAQXEFIEXLVEGGPSSGAPPPSGSE (Lys acylated (γGlu)2-C18 diacid; non-natural residues; C-amide; synthetic construct; SITE 2: note = 2-Aminoisobutyric Acid; SITE 6: note = alpha-methyl-2-fluoro-L-phenylalanine; SITE 10: note = 3-(4-Pyridyl)-L-alanine; SITE 11: note = alpha-methyl-L-serine; SITE 13: note = alpha-methyl-leucine; SITE 16: note = L-ornithine; SITE 17: note = Lysine is chemically mo) [Example 1162]
RECORDED_MEASUREMENT: 2.30
--
BINDER: YXQGTFTSDXXQXLDXKAQXQFIQXLIEXGPSSGEPPPSGGGE (non-natural residues, lipidated Lys, C-terminal amide; synthetic construct; SITE 2: note = 2-Aminoisobutyric Acid; SITE 10: note = 3-(4-Pyridyl)-L-alanine; SITE 11: note = alpha-methyl-L-serine; SITE 13: note = alpha-methyl-leucine; SITE 16: note = L-ornithine; SITE 17: note = Lysine is chemically modified through conjugation of the epsilon-amino group) [Example 1183]
RECORDED_MEASUREMENT: 2.10
--
BINDER: YXQGTXTSDXXIXLDXKAQXEFIEXLIEGGPPSXXPPPXGS (non-natural residues, acylated Lys (AEEA-γGlu-C18 diacid), C-terminal amide; synthetic construct; SITE 2: note = 2-Aminoisobutyric Acid; SITE 6: note = alpha-methyl-2-fluoro-L-phenylalanine; SITE 10: note = 3-(4-Pyridyl)-L-alanine; SITE 11: note = alpha-methyl-L-serine; SITE 13: note = alpha-methyl-leucine; SITE 16: note = L-ornithine; SITE 17: note = Lysine is chemically mo) [Example 1189]
RECORDED_MEASUREMENT: 2.39
--
BINDER: YXQGTFTSDFSKXLDKKAQXAFIEYLLEAGPSSGAPPPGEG (not fully specified; synthetic construct; SITE 2: note = 2-Aminoisobutyric Acid; SITE 13: note = alpha-methyl-leucine; SITE 17: note = Lysine is chemically modified through conjugation of the epsilon-amino group of the Lysine side chain with (2-[2-(2-Amino-ethoxy)-ethoxy]-acetyl)-(gamma-Glu)-CO-(CH2) 18-CO2H; SITE 20: n) [Example 34]
RECORDED_MEASUREMENT: 2.93
--
BINDER: YXQGTFTSDXXQXLDXKAQXQFIQXLIEGGPSSGEPPPSGGGE (not fully specified; non-natural residues; lysine acylated γGlu-C18 diacid; C-terminal amide; synthetic construct; SITE 2: note = 2-Aminoisobutyric Acid; SITE 10: note = 3-(4-Pyridyl)-L-alanine; SITE 11: note = alpha-methyl-L-serine; SITE 13: note = alpha-methyl-leucine; SITE 16: note = L-ornithine; SITE 17: note = Lysine is chemically modified through conjugation of the epsilon-amino group) [Example 1188]
RECORDED_MEASUREMENT: 2.11
--
BINDER: YXQGTFTSDXSKXLDKKAQXAFIEYLIEAGESSGAPPPSGS (Aib, 4Pal, αMeL, D-Ala; K acylated AEEA-γGlu-C18 diacid; amide; synthetic construct; SITE 2: note = 2-Aminoisobutyric Acid; SITE 10: note = 3-(4-Pyridyl)-L-alanine; SITE 13: note = alpha-methyl-leucine; SITE 17: note = Lysine is chemically modified through conjugation of the epsilon-amino group of the Lysine side chain with (2-[2-(2-Amino-ethoxy)-ethoxy]-acetyl)) [Example 283]
RECORDED_MEASUREMENT: 3.17
